target: Fuc(a1-2)Gal(b1-4)[Fuc(a1-3)]GlcNAc(b1-2)[Fuc(a1-2)Gal(b1-4)[Fuc(a1-3)]GlcNAc(b1-4)]Man(a1-3)[Fuc(a1-2)Gal(b1-4)[Fuc(a1-3)]GlcNAc(b1-2)Man(a1-6)]Man(b1-4)GlcNAc(b1-4)GlcNAc; assay: glycan array binding signal (z-score within array); higher = stronger binding; conditions: glycan notation: IUPAC condensed, linker removed
The full list was thinned out, with the strongest signals kept by preference.
value.type: glycan array binding signal (z-score)

CBP21 (Serratia marcescens), O83009 (protein) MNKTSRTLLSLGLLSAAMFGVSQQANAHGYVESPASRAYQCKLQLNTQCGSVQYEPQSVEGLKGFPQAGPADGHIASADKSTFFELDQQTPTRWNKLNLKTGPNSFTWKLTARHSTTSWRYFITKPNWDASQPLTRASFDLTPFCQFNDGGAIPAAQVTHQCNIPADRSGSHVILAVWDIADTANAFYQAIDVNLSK
3.02
BC2L-D C-terminal domain (Burkholderia cenocepacia), Q39MQ9_BURS3 (protein) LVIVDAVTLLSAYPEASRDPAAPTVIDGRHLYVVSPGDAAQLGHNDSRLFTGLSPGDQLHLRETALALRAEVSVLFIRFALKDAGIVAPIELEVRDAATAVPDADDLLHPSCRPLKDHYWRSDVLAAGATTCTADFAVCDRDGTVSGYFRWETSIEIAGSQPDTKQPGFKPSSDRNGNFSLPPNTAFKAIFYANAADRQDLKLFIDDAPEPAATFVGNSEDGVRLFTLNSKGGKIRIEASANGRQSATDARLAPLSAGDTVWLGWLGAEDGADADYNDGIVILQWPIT
-0.147
F17aG (Escherichia coli), Q99003 (protein) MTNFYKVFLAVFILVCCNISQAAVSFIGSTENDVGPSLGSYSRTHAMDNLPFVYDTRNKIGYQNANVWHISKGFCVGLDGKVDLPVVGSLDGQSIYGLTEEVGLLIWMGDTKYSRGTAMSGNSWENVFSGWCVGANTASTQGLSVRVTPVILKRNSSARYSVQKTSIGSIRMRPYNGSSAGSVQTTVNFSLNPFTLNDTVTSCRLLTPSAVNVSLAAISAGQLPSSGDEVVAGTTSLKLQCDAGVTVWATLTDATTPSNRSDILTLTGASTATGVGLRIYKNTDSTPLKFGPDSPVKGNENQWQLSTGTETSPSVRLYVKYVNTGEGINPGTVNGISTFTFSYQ
-0.163
Vd2LysM (Verticillium dahliae) (protein) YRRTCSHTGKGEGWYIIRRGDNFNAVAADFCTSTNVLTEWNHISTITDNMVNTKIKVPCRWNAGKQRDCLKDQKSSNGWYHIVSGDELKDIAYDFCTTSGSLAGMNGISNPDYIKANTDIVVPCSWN
0.533
RS2L (Ralstonia solanacearum), B5RXL5_RALSO (protein) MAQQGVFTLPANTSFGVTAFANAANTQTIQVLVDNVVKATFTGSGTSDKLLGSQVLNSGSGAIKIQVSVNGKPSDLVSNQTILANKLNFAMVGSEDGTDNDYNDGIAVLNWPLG
-0.175
Epa3 (Candida glabrata), Q6VBI8_CANGB (protein) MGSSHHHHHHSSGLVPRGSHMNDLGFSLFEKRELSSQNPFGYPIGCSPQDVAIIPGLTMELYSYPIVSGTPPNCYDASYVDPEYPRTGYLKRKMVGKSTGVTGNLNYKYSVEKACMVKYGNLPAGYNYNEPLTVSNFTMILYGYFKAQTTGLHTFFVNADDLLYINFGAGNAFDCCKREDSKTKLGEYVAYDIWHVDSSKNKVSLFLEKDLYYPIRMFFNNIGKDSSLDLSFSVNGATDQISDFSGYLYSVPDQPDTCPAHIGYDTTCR
0.047
LecB PA7 (Pseudomonas aeruginosa) (protein) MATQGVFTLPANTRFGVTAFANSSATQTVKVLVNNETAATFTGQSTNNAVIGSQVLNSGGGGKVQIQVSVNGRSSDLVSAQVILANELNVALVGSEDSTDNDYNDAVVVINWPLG
-0.08
PfulAvr4 (Pseudocercospora fuligena) (protein) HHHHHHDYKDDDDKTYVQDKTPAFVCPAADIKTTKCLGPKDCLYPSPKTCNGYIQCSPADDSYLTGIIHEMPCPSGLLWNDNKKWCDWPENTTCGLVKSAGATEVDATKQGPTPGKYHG
0.683
LecB LY19 (Pseudomonas aeruginosa) (protein) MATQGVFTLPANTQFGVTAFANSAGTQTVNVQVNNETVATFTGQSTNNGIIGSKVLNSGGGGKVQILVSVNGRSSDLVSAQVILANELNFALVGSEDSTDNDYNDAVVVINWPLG
0.085
